# Experimental Details: Therapeutic index, ratio of TC50 for african green monkey Vero cells to IC50 for Sandfly fever sicilian virus
# Assay type: cell-based
# Reported Conditions: read-out: TI
Assay Endpoint: selectivity ratio
Respond with the number and no other words.

Solved entries (count: 3):
>>> quantitative_result("O=C1N[C@H]2[C@H](O)[C@H](O)[C@@H](O)C[C@H]2c2cc3c(cc21)OCO3")
3
>>> quantitative_result("CO[C@@H]1C=C[C@@]23c4cc5c(cc4C(O)O[C@H]2CN(C)[C@H]3C1)OCO5 (some centres undefined)")
3
>>> quantitative_result("O=C1N[C@H]2[C@H](O)[C@H](O)[C@@H](O)[C@H](O)[C@@H]2c2cc3c(cc21)OCO3")
2.7

### Prompt Bench note: what selectivity ratio did O=C1N[C@@H]2C(=C[C@H](O)[C@@H](O)[C@H]2O)c2cc3c(cc21)OCO3 show?
### Response 4.5
